subject_of_test: H1047R PIK3CA enzyme (Homo sapiens, UniProt P42336, H1047R)
Sequence (P42336 whole entry H1047R): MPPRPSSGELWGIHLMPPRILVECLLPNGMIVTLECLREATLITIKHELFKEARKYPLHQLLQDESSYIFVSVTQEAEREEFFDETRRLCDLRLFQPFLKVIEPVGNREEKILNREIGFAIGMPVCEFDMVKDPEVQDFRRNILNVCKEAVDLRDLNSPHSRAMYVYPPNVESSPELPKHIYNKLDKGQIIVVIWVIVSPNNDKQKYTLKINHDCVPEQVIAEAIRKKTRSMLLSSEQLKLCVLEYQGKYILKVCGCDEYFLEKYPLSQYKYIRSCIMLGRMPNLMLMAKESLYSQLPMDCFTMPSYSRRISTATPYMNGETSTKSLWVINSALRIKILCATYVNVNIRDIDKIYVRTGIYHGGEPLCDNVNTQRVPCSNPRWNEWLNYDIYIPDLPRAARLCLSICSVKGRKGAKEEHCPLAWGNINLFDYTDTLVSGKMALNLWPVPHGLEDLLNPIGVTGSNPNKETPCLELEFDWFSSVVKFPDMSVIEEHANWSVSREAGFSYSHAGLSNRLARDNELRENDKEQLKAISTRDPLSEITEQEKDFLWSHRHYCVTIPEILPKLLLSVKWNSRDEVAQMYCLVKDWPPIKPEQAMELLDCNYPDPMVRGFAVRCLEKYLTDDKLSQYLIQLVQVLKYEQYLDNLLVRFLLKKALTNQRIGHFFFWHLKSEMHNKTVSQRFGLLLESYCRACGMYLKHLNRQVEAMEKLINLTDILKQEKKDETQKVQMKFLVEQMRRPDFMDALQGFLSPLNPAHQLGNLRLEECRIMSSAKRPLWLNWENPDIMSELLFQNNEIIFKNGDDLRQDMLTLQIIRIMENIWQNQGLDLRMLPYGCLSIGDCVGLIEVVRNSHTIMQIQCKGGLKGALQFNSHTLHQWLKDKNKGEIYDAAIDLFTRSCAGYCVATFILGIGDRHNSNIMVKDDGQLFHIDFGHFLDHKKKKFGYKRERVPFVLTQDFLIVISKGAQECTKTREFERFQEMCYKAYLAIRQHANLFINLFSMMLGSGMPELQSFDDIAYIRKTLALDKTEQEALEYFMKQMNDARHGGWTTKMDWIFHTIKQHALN
Sequence (P27986 whole entry partner): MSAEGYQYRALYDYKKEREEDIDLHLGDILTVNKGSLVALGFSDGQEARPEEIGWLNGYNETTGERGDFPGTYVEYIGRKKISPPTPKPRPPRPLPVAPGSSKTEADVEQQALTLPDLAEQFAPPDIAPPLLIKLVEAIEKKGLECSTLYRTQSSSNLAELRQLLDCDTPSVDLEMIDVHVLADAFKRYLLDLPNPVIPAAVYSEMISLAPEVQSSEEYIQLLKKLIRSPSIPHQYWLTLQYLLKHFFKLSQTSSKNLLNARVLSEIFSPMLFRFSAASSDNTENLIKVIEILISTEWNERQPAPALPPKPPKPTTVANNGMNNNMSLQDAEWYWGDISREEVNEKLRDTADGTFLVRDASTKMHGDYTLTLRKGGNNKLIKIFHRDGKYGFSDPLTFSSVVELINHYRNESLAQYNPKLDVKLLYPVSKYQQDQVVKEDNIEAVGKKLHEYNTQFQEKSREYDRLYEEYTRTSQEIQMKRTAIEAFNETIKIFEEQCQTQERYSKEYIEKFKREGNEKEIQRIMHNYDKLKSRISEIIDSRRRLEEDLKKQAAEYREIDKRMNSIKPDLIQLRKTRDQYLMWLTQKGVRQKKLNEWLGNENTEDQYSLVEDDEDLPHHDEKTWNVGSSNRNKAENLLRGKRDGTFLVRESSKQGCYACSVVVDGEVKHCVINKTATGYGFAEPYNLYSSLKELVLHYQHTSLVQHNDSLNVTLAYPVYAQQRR
assay_explanation: ADP-Glo Biochemical PIK3CA Kinase Assay
Parameter: IC50. Scope: all listed entries.

Example entries and their recorded answers appear below.
molecule	measured_metric	measured_result
CC(C)N1C[C@H](O)C[C@H]1C(=O)Nc1cccc2c1C(c1cc(F)ccc1Cl)NC2=O (mixture of isomers) [Compound I-2392]	IC50	10000 to 100000 nM
O=C(Nc1cc(NC2=N[C@@H](C(F)(F)F)CO2)cc2c1[C@H](c1cc(F)ccc1Cl)NC2=O)c1cc(F)cc(C(F)(F)F)c1 (single isomer, unassigned) [Compound I-2388]	IC50	≤ 100 nM

Kindly review the next molecule as well.
Item under review: N#Cc1cnc2ccc(-c3cc(NC(=O)c4cc(F)cc(C(F)(F)F)c4)c4c(c3)C(=O)N[C@@H]4c3cc(F)ccc3Cl)cn12 [Compound I-1442] . Reported IC50?
100 to 500 nM
